Each entry below carries its measured IC50, system: mALDH1a2 (Mus musculus).
Sequence (Q62148 whole entry): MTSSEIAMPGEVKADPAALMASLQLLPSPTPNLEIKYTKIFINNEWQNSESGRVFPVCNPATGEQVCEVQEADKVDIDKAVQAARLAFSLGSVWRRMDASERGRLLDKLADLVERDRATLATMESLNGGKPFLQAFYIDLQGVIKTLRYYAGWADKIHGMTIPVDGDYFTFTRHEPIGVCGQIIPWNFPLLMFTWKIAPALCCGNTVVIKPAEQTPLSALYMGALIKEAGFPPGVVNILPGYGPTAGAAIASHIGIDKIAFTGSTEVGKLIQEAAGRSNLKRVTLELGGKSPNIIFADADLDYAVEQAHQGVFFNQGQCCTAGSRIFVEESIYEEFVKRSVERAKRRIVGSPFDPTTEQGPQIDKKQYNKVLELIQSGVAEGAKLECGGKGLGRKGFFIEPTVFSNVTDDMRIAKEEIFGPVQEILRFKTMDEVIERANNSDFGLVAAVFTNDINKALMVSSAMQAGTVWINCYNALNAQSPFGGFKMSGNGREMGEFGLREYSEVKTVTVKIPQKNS
Write the value in µM as a bare number.

# Cpd Smiles, Experimental System, Value Measured
records = [
    ("CCc1cnc(C)cc1C(=O)Nc1cc2c(cc1F)NC(=O)CC2", "mALDH1a2 (Mus musculus)", 5),
    ("CC1(C)Cc2cc(Nc3ccc4c(n3)CCCC4=O)ccc2NC1=O", "mALDH1a2 (Mus musculus)", 1.29),
]

Exam item: Need IC50 of CC1(C)Cc2cc(Nc3ncc4ccccc4n3)c(F)cc2NC1=O , thanks.
Marked response: 0.1

Exam item: Do the same for CC(C)Cc1cnccc1C(=O)Nc1cc2c(cc1F)NC(=O)CC2 please
Marked response: 9

Exam item: Do the same for CCc1cnc(Cl)cc1C(=O)Nc1cc2c(cc1F)NC(=O)CC2 please
Marked response: 0.324

Exam item: Do the same for CC1(C)Cc2cc(Nc3ccc4ccccc4n3)c(F)cc2NC1=O please
Marked response: 0.097

Exam item: Do the same for Cc1ccc2nc(Nc3ccc4c(c3)CCC(=O)N4)ccc2c1 please
Marked response: 0.489

Exam item: Do the same for O=C1CCc2cc(NCc3cc[nH]c3)c(F)cc2N1 please
Marked response: 10

---

pIC50: −log10 of the molar value.
Each entry below carries its measured pIC50, system: mALDH1a2 (Mus musculus).

In the examples that follow, each entry is paired with its recorded pIC50.
# Compound, Quantity Measured, Value Measured
data = [
    ("CCc1cnccc1C(=O)Nc1cc2c(cc1F)NC(=O)C(C)(C)C2 [compound 38]", "pIC50", "< 5.00"),
    ("Cc1ccc(C(=O)Nc2ccc3c(c2)CCC(=O)N3)c(C)c1 [compound 12]", "pIC50", "< 5.00"),
    ("CCc1cnccc1C(=O)Nc1ccc2c(c1)C(C)(C)C(=O)N2 [compound 137]", "pIC50", "< 4.00"),
]

Now let's try a different one.
Exam item: Need pIC50 of CCc1cccnc1C(=O)Nc1cc2c(cc1Cl)NC(=O)CC2 [compound 72] , thanks.
Marked response: < 5.00

---

Target chain: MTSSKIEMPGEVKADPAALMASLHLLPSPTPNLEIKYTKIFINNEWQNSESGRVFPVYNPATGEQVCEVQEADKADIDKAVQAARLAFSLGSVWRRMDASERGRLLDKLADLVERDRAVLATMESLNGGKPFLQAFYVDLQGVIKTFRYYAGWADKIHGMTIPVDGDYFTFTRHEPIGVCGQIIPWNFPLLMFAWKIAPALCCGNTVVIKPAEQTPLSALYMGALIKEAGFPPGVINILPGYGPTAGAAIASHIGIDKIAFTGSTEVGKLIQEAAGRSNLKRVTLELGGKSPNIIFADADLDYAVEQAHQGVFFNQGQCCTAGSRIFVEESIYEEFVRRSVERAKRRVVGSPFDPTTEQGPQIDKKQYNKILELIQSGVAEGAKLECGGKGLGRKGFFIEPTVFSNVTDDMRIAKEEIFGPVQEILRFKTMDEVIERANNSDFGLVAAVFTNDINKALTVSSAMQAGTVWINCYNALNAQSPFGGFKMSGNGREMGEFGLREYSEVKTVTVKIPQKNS
Item-by-item account of IC50

# Compound, Value Measured
data = [
    ("CCc1cccnc1C(=O)Nc1cc2c(cc1Cl)NC(=O)CC2", "> 10 µM"),
]

Exam item: Need IC50 of CC1(C)Cc2cc(NN3CCC(c4ccccc4)C3=O)ccc2NC1=O (stereo not drawn) , thanks.
Marked response: > 10 µM

Exam item: Do the same for CC1(C)Cc2cc(Nc3ccc(Cl)cn3)ccc2NC1=O please
Marked response: > 10 µM
